All figures here come from PubChem BioAssay AID624065.

assay system: Insulin-degrading enzyme (Homo sapiens) (UniProt P14735)
Sequence (P14735 whole entry, looked up): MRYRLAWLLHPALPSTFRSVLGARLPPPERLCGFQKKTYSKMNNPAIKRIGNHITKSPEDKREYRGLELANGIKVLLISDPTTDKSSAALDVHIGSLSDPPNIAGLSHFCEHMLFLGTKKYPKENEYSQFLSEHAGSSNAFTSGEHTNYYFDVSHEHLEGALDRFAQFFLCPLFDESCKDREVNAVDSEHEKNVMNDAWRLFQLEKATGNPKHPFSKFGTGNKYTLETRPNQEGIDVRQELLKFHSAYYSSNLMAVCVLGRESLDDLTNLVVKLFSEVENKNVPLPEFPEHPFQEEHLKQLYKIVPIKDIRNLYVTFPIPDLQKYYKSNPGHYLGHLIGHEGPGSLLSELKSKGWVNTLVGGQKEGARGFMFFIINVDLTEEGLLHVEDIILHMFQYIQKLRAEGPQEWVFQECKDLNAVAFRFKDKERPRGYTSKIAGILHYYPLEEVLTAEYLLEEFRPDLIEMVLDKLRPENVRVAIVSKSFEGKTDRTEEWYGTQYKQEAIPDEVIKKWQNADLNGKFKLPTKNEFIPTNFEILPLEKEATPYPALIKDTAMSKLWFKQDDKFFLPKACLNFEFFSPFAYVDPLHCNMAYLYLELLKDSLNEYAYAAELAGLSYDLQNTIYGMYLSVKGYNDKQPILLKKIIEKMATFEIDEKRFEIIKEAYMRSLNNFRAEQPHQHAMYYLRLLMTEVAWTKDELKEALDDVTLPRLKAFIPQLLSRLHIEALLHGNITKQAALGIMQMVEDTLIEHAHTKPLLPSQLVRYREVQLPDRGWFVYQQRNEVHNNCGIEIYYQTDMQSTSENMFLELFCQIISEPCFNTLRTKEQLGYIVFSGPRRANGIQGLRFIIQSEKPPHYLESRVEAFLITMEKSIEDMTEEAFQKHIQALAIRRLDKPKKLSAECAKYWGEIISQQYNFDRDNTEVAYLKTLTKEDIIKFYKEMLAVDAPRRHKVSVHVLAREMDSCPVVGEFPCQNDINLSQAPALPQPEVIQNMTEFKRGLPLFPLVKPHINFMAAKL
measurement protocol: inhibition of recombinant IDE cleaving insulin – biochemical, TR-FRET, counter-screen for IDE inhibitor project, late-stage follow-up (AID 624065)
experimental parameters: recombinant IDE insulin degradation
Calls of active or inactive are those of the source. The rule behind the calls is not given here.
Mark one answer only. Choices: active, inactive

These recorded examples may help you get a feel for the data.
compound=Nc1c(C(=O)Nc2nccs2)sc2nc(-c3cccs3)cc(C(F)(F)F)c12 label_value=inactive
compound=Cn1c(=O)c(C(=O)CN2CCCc3ccccc32)c(N)n(Cc2ccccc2)c1=O label_value=inactive

QUERY: So what was the verdict on COc1cc(/C=C2\SC(=S)N(NC(C)=O)C2=O)ccc1OC(=O)c1ccco1 in this test?
RESULT: inactive

QUERY: Another compound: O=c1c2ccccc2sn1-c1cc(S(=O)(=O)N2CCOCC2)ccc1N1CCOCC1
RESULT: active

QUERY: Another compound: Cc1cccc(-c2nnc(SCc3nc4ccccc4[nH]3)n2Cc2ccco2)c1
RESULT: inactive

QUERY: Another compound: O=C(O)c1ccccc1NS(=O)(=O)c1cccc(-n2sc3ccccc3c2=O)c1
RESULT: active

QUERY: Another compound: Cc1ccc(C)c(N2C(=N)S/C(=C\c3ccc(-c4ccccc4C(=O)O)o3)C2=O)c1
RESULT: inactive

QUERY: Another compound: CCOc1ccc2[nH]c3c(N4CCN(C(=O)c5ccco5)CC4)ncnc3c2c1
RESULT: inactive

QUERY: Another compound: O=C(Nc1cccc(C(F)(F)F)c1)c1csc(-c2ccncc2)n1
RESULT: inactive

QUERY: Another compound: COc1ccc(C(=O)N2CCN(C(=O)C3COc4ccccc4O3)CC2)cc1OC (stereo unspecified)
RESULT: active
